Where do the numbers come from? From ChEMBL document CHEMBL5291721.

Hi! I'm sharing some AC50 results obtained with Histamine H1 receptor (Homo sapiens, UniProt P35367).
Sequence (P35367 whole entry): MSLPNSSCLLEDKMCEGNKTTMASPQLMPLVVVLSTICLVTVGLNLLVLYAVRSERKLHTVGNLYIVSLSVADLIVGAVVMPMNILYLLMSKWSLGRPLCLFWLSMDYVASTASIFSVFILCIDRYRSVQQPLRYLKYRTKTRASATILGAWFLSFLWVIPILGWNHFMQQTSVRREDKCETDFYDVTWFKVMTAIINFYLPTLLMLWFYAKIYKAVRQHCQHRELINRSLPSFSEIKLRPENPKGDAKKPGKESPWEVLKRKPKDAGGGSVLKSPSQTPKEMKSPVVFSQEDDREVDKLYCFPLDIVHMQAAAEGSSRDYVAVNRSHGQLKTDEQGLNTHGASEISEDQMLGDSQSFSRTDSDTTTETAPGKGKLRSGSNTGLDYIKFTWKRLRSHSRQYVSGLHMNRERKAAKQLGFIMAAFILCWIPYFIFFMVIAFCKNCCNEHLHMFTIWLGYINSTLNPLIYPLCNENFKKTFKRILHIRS

Query block: API: value(readout= AC50, system= Histamine H1 receptor (Homo sapiens, UniProt P35367), query= OCc1cc(C(O)CNCCCCCCOCCCCc2ccccc2)ccc1O (stereo unspecified) ); also: assay procedure not described here
Result block: > 10 µM

Query block: # returns recorded AC50 (system: Histamine H1 receptor (Homo sapiens, UniProt P35367)) for CC(C)[C@H](N)C(=O)OCC(CO)OCn1cnc2c(=O)nc(N)[nH]c21 (stereo partly specified); also: assay procedure not described here
Result block: > 30 µM

====

# tested target: UniProt:Q08499
# Sequence (Q08499 whole entry): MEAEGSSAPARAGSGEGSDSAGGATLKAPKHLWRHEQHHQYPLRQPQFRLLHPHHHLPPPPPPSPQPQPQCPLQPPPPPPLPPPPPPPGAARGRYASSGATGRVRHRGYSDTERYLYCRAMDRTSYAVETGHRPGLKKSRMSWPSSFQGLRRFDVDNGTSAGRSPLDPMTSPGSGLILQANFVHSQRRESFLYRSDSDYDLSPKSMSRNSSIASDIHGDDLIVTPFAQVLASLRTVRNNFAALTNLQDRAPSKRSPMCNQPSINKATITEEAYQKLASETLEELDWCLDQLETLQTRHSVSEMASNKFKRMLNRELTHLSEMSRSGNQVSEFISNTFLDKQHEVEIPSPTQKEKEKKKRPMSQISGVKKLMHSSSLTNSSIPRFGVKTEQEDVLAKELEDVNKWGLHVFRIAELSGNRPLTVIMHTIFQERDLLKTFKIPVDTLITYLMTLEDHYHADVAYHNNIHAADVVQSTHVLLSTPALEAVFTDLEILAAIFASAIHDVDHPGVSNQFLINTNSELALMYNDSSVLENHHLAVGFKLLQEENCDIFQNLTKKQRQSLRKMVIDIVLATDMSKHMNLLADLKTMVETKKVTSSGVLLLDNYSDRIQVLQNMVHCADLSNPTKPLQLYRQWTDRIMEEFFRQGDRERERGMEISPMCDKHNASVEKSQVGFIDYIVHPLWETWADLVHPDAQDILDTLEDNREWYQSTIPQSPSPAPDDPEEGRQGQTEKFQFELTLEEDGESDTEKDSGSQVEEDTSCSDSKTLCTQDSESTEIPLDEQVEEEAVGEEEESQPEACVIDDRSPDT
# Format: functional
Some compounds, each annotated with its measured AC50.

Query block: Could you tell me which AC50 is on file for Cc1cccc(N2CC(CO)OC2=O)c1 (stereo unspecified) ?
Result block: > 30 µM

Query block: Need AC50 of CC(C)N(CCC(C(N)=O)(c1ccccc1)c1ccccn1)C(C)C (stereo unspecified) [DISOPYRAMIDE] , thanks.
Result block: > 10 µM

Query block: Which AC50 reading was recorded for the compound Oc1ccc2c(c1)CC[C@H](c1ccccc1)[C@@H]2c1ccc(OCCN2CCCC2)cc1 ?
Result block: 15 µM

Further cases:
Query block: Consider the compound CCC1(c2ccccc2)CCC(=O)NC1=O (stereo unspecified) [GLUTETHIMIDE] and give its measured AC50.
Result block: > 30 µM

Query block: Requested read-out: AC50. Entry: O=C1CCc2cc(OCCCCc3nnnn3C3CCCCC3)ccc2N1
Result block: 23.4 µM

Query block: I'd like to know its AC50. The compound in question is CCCC(CCC)C(N)=O [VALPROMIDE]
Result block: > 30 µM
